conditions: caco-2
REPORTED_METRIC: Daq (×10⁻⁶ cm2/s)
Write the answer as a number in ×10⁻⁶ cm2/s, unit excluded.

Below, each entry is followed by its recorded Daq result.
{"MOLECULE": "CC(C)NCC(O)COc1ccc(CC(N)=O)cc1 (stereo unspecified) [ATENOLOL]", "Daq [×10⁻⁶ cm2/s]": 7.9}
{"MOLECULE": "O [WATER]", "Daq [×10⁻⁶ cm2/s]": 26.7}
{"MOLECULE": "CC(C)n1c(/C=C/C(O)CC(O)CC(=O)O)c(-c2ccc(F)cc2)c2ccccc21 (stereo unspecified) [FLUVASTATIN]", "Daq [×10⁻⁶ cm2/s]": 6.5}
{"MOLECULE": "NS(=O)(=O)c1cc(C(=O)O)c(NCc2ccco2)cc1Cl [FUROSEMIDE]", "Daq [×10⁻⁶ cm2/s]": 7.1}
{"MOLECULE": "CC(C)NCC(O)COc1cccc2ccccc12 (stereo unspecified) [PROPRANOLOL]", "Daq [×10⁻⁶ cm2/s]": 8}
{"MOLECULE": "CC1=C(/C=C/C(C)=C/C=C/C(C)=C/C(=O)O)C(C)(C)CCC1 [TRETINOIN]", "Daq [×10⁻⁶ cm2/s]": 7.5}
{"MOLECULE": "N[C@@H](Cc1ccc(O)c(O)c1)C(=O)O [LEVODOPA]", "Daq [×10⁻⁶ cm2/s]": 9}
{"MOLECULE": "CCOC(=O)[C@H](CCc1ccccc1)N[C@@H](C)C(=O)N1CCC[C@H]1C(=O)O", "Daq [×10⁻⁶ cm2/s]": 6.7}

Entry C[C@](N)(Cc1ccc(O)c(O)c1)C(=O)O [METHYLDOPA] ; Daq = 8.8

So for CC(C)C[C@H](N)C(=O)O [LEUCINE] , the logged Daq turned out to be 10.9

Briefly, Daq measured for COCCc1ccc(OCC(O)CNC(C)C)cc1 (stereo unspecified) [METOPROLOL] : 7.9
